target: von Hippel-Lindau disease tumor suppressor/Son of sevenless homolog 1 (Homo sapiens, UniProt P40337+Q07889); experiment: PROTAC activity at VHL/SOS1 in human NCI-H358 cells assessed as induction of SOS1 protein degradation incubated for 24 hrs by Immunoblot analysis
Sequence (Q07889 whole entry): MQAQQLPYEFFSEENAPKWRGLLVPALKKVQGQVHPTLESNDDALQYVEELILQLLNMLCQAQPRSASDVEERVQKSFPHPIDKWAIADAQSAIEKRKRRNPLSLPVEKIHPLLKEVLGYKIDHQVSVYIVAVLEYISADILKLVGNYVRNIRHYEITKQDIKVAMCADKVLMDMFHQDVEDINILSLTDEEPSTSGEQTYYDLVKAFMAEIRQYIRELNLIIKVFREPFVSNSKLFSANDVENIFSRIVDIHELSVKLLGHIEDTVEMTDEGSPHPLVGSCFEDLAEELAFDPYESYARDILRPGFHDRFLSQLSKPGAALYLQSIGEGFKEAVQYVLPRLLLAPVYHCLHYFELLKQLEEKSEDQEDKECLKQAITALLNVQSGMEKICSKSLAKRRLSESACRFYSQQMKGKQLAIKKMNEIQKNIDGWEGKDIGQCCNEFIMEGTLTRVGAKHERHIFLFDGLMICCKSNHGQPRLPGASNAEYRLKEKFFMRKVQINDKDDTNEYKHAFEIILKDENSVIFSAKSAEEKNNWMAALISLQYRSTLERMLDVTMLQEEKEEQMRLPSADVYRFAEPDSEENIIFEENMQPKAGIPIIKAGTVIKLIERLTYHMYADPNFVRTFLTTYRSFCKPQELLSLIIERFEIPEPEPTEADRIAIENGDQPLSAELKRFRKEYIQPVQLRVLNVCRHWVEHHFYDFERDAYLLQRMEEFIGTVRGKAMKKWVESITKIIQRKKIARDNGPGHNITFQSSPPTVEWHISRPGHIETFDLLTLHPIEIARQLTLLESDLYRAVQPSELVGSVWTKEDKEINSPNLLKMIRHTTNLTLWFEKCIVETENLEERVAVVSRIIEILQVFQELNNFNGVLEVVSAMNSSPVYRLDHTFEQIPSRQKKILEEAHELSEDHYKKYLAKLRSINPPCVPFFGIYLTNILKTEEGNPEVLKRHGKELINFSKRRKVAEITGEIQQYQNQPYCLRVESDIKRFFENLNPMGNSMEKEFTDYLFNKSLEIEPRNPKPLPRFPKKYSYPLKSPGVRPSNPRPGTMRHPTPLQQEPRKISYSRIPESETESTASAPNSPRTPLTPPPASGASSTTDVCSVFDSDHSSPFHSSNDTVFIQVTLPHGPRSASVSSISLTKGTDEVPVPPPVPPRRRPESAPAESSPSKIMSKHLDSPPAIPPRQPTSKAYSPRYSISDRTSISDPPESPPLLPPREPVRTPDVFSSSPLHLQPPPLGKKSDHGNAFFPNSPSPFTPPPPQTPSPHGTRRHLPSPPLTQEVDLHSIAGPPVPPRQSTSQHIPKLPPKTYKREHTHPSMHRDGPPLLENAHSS
Sequence (P40337 whole entry): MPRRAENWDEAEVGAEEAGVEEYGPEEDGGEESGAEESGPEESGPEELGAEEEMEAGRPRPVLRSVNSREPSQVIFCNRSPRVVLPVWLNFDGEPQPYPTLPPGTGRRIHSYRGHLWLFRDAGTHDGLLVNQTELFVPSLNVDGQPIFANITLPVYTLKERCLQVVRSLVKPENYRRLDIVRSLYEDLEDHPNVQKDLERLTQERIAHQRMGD
recorded_metric: pEC50
Remember, pEC50 is on a log scale: it is -log10 of the molar concentration.

structure_string	recorded_metric	endpoint_value
COc1cc2nc(C)nc(N[C@H](C)c3cc(N)cc(C(F)(F)F)c3)c2cc1C1CCN(C(=O)CCCCCC(=O)N[C@H](C(=O)N2C[C@H](O)C[C@H]2C(=O)N[C@@H](C)c2ccc(-c3scnc3C)cc2)C(C)(C)C)CC1	pEC50	7.80

For the next question, use this molecule.
Sample COc1cc2nc(C)nc(N[C@H](C)c3cc(N)cc(C(F)(F)F)c3)c2cc1C1CCN(C(=O)COCCCC(=O)N[C@H](C(=O)N2C[C@H](O)C[C@H]2C(=O)N[C@@H](C)c2ccc(-c3scnc3C)cc2)C(C)(C)C)CC1 ; pEC50 observed: 7.31
